Catalogue of compounds with associated molar heat capacity at constant pressure
experiment: molar heat capacity at constant pressure; details: 313.15 K; 6000 kPa; Liquid; Small sample (50 mg) DSC
reported endpoint: molar heat capacity at constant pressure (J/K/mol)

INSERT INTO assay_data (compound, number) VALUES
  ('CCCCCCn1cc[n+](C)c1.F[B-](F)(F)F [1-hexyl-3-methylimidazolium tetrafluoroborate]', 437.9),
  ('CCn1cc[n+](C)c1.F[B-](F)(F)F [1-ethyl-3-methylimidazolium tetrafluoroborate]', 310.32),
  ('CCCCn1cc[n+](C)c1.F[B-](F)(F)F [1-butyl-3-methylimidazolium tetrafluoroborate]', 372.73),
  ('CCCCCCCC[n+]1ccn(C)c1.F[B-](F)(F)F [1-methyl-3-octylimidazolium tetrafluoroborate]', 509.37);

---

Catalogue of compounds with associated molar heat capacity at constant pressure
test: molar heat capacity at constant pressure; details: 293.15 K; 40000 kPa; Liquid; Small sample (50 mg) DSC
reported endpoint: molar heat capacity at constant pressure (J/K/mol)

INSERT INTO assay_data (compound, reported_endpoint, number) VALUES
  ('CCCCn1cc[n+](C)c1.F[B-](F)(F)F [1-butyl-3-methylimidazolium tetrafluoroborate]', 'molar heat capacity at constant pressure', 364.54),
  ('CCn1cc[n+](C)c1.F[B-](F)(F)F [1-ethyl-3-methylimidazolium tetrafluoroborate]', 'molar heat capacity at constant pressure', 303.83),
  ('CCCCCCCC[n+]1ccn(C)c1.F[B-](F)(F)F [1-methyl-3-octylimidazolium tetrafluoroborate]', 'molar heat capacity at constant pressure', 496.73),
  ('CCCCCCn1cc[n+](C)c1.F[B-](F)(F)F [1-hexyl-3-methylimidazolium tetrafluoroborate]', 'molar heat capacity at constant pressure', 428.15);

---

Catalogue of compounds with associated molar heat capacity at constant pressure
experiment: molar heat capacity at constant pressure; conditions: 298.15 K; 40000 kPa; Liquid; Small sample (50 mg) DSC
reported endpoint: molar heat capacity at constant pressure (J/K/mol)

INSERT INTO assay_data (compound, unit_label, number) VALUES
  ('CCCCn1cc[n+](C)c1.F[B-](F)(F)F [1-butyl-3-methylimidazolium tetrafluoroborate]', 'J/K/mol', 366.53),
  ('CCCCCCn1cc[n+](C)c1.F[B-](F)(F)F [1-hexyl-3-methylimidazolium tetrafluoroborate]', 'J/K/mol', 430.57),
  ('CCn1cc[n+](C)c1.F[B-](F)(F)F [1-ethyl-3-methylimidazolium tetrafluoroborate]', 'J/K/mol', 305.49),
  ('CCCCCCCC[n+]1ccn(C)c1.F[B-](F)(F)F [1-methyl-3-octylimidazolium tetrafluoroborate]', 'J/K/mol', 500.18);

---

test: molar heat capacity at constant pressure; conditions: 283.15 K; 10000 kPa; Liquid; Small sample (50 mg) DSC
reported endpoint: molar heat capacity at constant pressure (J/K/mol)

INSERT INTO measurements (molecule, unit_label, number) VALUES
  ('CCCCn1cc[n+](C)c1.F[B-](F)(F)F [1-butyl-3-methylimidazolium tetrafluoroborate]', 'J/K/mol', 360.39),
  ('CCCCCCn1cc[n+](C)c1.F[B-](F)(F)F [1-hexyl-3-methylimidazolium tetrafluoroborate]', 'J/K/mol', 422.98),
  ('CCn1cc[n+](C)c1.F[B-](F)(F)F [1-ethyl-3-methylimidazolium tetrafluoroborate]', 'J/K/mol', 300.33),
  ('CCCCCCCC[n+]1ccn(C)c1.F[B-](F)(F)F [1-methyl-3-octylimidazolium tetrafluoroborate]', 'J/K/mol', 489.24);
